# maps each entry to its GI50
tested on: SF-539; assay: NCI tumour cell line growth inhibition, 48 h
Activity calls are given as the source filed them. No stated cut-off is given here; in the data, active = GI50 up to about 1.1 µM and inactive = higher.

Worked set:
CN(C)CCNC(=O)c1ccccc1Nc1c(Cl)cccc1Cl
13.1 µM (inactive)
COc1ccc(CCN2CCN(CCCc3ccccc3)CC2)cc1
> 100 µM (inactive)
CC1=CC(=O)/C(=C/Nc2nc(-c3ccc([N+](=O)[O-])cc3)cs2)C(=O)O1
> 100 µM (inactive)

Let's switch to this molecule now.
Lab note: record GI50 of OC(c1ccccc1)c1c(-c2ccccc2)[nH]c(-c2ccccc2)c1C(O)c1ccccc1 (stereo not drawn) tested on SF-539.
2.95 µM (inactive)
